- assay.remarks: Dissolution of formulation slurries (Plasdone S630 + Polysorbate 80) in simulated intestinal fluid
- Type: physicochemical
- assay.conditions: simulated intestinal fluid plus aqueous formulation slurry, aqueous with cosolvent or surfactant or cyclodextrin, thermodynamic from solid; SIF plus water containing 2% Plasdone S630 and 1% Polysorbate 80, 37° C.; read-out: equilibrium solubility in formulation/SIF system
- Description: Simulated intestinal fluid (SIF) was prepared by dissolving 21.6 mg of sodium hydroxide, 168.8 mg of sodium dihydrogen phosphate dihydrate, 311.6 mg of sodium chloride, and 113.0 mg of SIF Powder Original (Biorelevant) in 50 mL of water. […] For FIGS. 44 and 45, to the […]-vial of SIF (20-mL vial was charged with 10 mL of water and placed in a 37° C. bath) 12.1 mg of DHEA (from sample TL876) was added. […] The supernatants were analyzed by HPLC. […]
measured.endpoint: solubility thermodynamic

Req: So what does the record say about solubility thermodynamic for C[C@]12CC[C@H](O)CC1=CC[C@@H]1[C@@H]2CC[C@]2(C)C(=O)CC[C@@H]12 [DHEA, Dehydroepiandrosterone] ?
Resp: 120 to 130 µg/mL

====

- assay.remarks: Dissolution study with DHEA concentration measured by HPLC over time
- Format: physicochemical
- assay.conditions: pH 6.8 phosphate buffer, pH 6.8, aqueous buffer, thermodynamic from solid, aqueous dissolution study (pH 6.8 buffer, ambient temperature); read-out: solubility
measured.endpoint: solubility

Req: For the compound shown here, C[C@]12CC[C@H](O)CC1=CC[C@@H]1[C@@H]2CC[C@]2(C)C(=O)CC[C@@H]12 [DHEA polymorph form I (FI), Dehydroepiandrosterone] , give the reported solubility.
Resp: ~30 µg/mL

FYI, the data here is from patent US10130713B2.
